Sequence of the target: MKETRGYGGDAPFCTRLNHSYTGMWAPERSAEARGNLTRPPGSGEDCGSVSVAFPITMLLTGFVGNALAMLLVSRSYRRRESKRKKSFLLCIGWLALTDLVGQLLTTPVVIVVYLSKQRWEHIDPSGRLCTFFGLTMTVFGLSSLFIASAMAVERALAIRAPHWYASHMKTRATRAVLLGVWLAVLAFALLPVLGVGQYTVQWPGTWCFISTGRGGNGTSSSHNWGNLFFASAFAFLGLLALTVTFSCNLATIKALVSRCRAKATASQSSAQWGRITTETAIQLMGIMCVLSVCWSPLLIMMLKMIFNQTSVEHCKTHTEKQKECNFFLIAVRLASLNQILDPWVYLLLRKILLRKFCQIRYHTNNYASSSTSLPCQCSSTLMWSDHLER
Assembled from different publications: log10 of Ki for the protein given by its sequence.
The base-10 logarithm of Ki, taken with Ki in µM, is what appears here.

Example results:
COc1cc(C/C=C/c2ccccc2/C=C/C(=O)O)ccc1OCC[n+]1c(C)cc(/C=C/c2ccc(N(C)C)cc2)cc1C    -0.66
O=C(O)CCCCCCN1C(=O)CC[C@@H]1/C=C/C(O)Cc1ccccc1 (some centres not stated)    2.00
CCCC/C(C)=C/C=C/[C@H]1CCC(=O)N1CCc1ccc(C(=O)O)cc1    1.00
Cc1ccc(S(=O)(=O)NC(=O)NCCc2ccc(-c3c(C(=O)N(C)C)sc4c(C)cc(C)cc34)cc2)cc1    -0.28
O=C(NCCc1cccs1)NS(=O)(=O)c1ccccc1-c1ccc(CN2C(=O)c3ccccc3CCc3ccccc32)cc1    0.34

Give log10 of Ki for each listed item.
1. O=C(O)CCCCCCN1C(=O)CC[C@@H]1/C=C/[C@@H](O)Cc1cccc(C(F)(F)F)c1
2. O=C(O)CCCCCCN1C(=O)CC[C@@H]1/C=C/[C@@H](O)CC1CCCCC1
3. O=C(O)CCCCCCN1C(=O)CC[C@@H]1/C=C/C(O)c1ccc(C(F)(F)F)o1 (some centres not stated)
4. CCCCC[C@H](O)CC[C@H]1CCC(=O)N1CCc1ccc(C(=O)O)cc1
5. O=C(COc1ccccc1)NS(=O)(=O)c1ccccc1-c1ccc(CN2C(=O)c3ccccc3CCc3ccccc32)cc1
6. COc1cc(C/C=C/c2ccccc2/C=C/C(=O)O)ccc1OCC[n+]1c(C)cc(/C=C/C=C/c2ccc(N(C)C)cc2)cc1C.F[B-](F)(F)F

Reply:
1.11
1.20
0.69
1.96
0.67
-0.87

* * *

Assembled from different publications: Ki for Prostaglandin E2 receptor EP3 subtype (Homo sapiens, UniProt P43115).
Answers are plain numbers, in µM.

Example results:
CN(CCc1ccccc1)C(=O)NS(=O)(=O)c1ccccc1-c1ccc(CN2C(=O)c3ccccc3CCc3ccccc32)cc1    5
O=C(O)CCCc1ccccc1-c1cccc(-c2ccccc2OCc2ccccc2)c1    0.59

Ask: Return reported Ki; argument: `COc1cc(C/C=C/c2ccccc2/C=C/C(=O)O)ccc1OCCNC(=S)Nc1ccc(C(=O)O)c(-c2c3ccc(=O)cc-3oc3cc(O)ccc23)c1`
Reply: 1.26

* * *

Assembled from different publications: Ki for Prostaglandin E2 receptor EP3 subtype (Homo sapiens).

Example results:
O=C1c2ccccc2CCc2ccccc2N1Cc1ccc(-c2ccccc2S(=O)(=O)N(Cc2ccccc2)C(=O)NCCc2ccccc2)cc1    > 100 µM
C[C@H](NC(=O)[C@H]1CCCCN1CCOc1ccccc1)c1ccc(C(=O)O)cc1    > 14 µM

Give Ki for each listed item.
1. Cc1sc(C)c(C(=O)N[C@@H](C)c2ccc(C(=O)O)cc2)c1Cc1ccc(Cl)cc1
2. O=C(O)CC1CCCc2c1n(Cc1ccc(Cl)cc1)c1c(F)cc(F)cc21 (centres undefined)

Reply:
1. > 2.12 µM
2. > 0.3 µM
